// provenance: the supplement of paper PMC10567573

Quick list: protein stability index per entry.
B1: ZNF649 (parent)
chain: EHERAHRGEKPHGCSLCGKAFYKR

Variants of: B1
experiment-summary: protein stability index of a GFP-peptide fusion (GPS, HEK-293T) (PSI 1-6); higher = more stable;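 note: lentivirally expressed fusions sorted by FACS into six bins by GFP to DsRed ratio, PSI derived from sequencing read proportions per bin multiplied by bin number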
condition-summary: c terminus: a fixed tail appended

- sequence-text: "EHERAHRIEKPHGCSLCGKAFYKR [G8I]"
  protein stability index: 2.01

Lab note: EHERAVRGEKPHGCSLCGKAFYKR [H6V] gave protein stability index of 1.58

protein stability index reading for EHERAHRGEKPRGCSLCGKAFYKR [H12R] : 1.66

The recorded protein stability index for entry EHERAHRGEKPHGCSLCGCAFYKR [K19C] equals 1.78

Item: EHERAHRGEKPHGCSLCGKAGYKR [F21G] | protein stability index: 2.11

Please fill in: protein stability index reported for EHERAHRGEKPHGCALCGKAFYKR [S15A] = 1.84
